Decision: melting point compared against 200 °C; not below it gives Yes, below it gives No.

COc1cc(C2=C(c3c(C)[nH]c4ccccc34)C(=O)NC2=O)cc(OC)c1OC | Yes
COc1ccc2[nH]cc(C3=C(c4cc(OC)c(OC)c(OC)c4)C(=O)NC3=O)c2c1 | Yes
COc1cc(C2=C(c3c[nH]c4ncccc34)C(=O)NC2=O)cc(OC)c1OC | No
COc1cc(C2=C(c3c(-c4ccccc4)[nH]c4ccccc34)C(=O)NC2=O)cc(OC)c1OC | Yes

Threshold query (melting point >= 200 °C) on "COc1cc(C2=C(c3cn(C)c4ccccc34)C(=O)NC2=O)cc(OC)c1OC"
No

Please check the record "COc1cc(C2=C(c3cc4ccccc4[nH]3)C(=O)NC2=O)cc(OC)c1OC" and state if its melting point is at or above 200 °C.
Yes

Tell me whether melting point is at least 200 °C here: "COc1ccc(C2=C(c3c[nH]c4ccccc34)C(=O)NC2=O)cc1OC"
Yes

These measurements were taken from patent US8008320B2.
